tested on: Zika virus NS2B-NS3 protease; test: Primary screen GU AMC qHTS for Zika virus inhibitors (AID 1347154); settings: Zika NS2B-NS3 unlinked protease, AMC fluorogenic substrate; series mostly up to 54.1 µM; also: nearly all actives have a fitted effect of over 70% in size
Records with an inconclusive call do not appear. Active and inactive are the calls of the source. Calls follow the shape of the dose curve; as a rule, active = well fitted inhibition curve with a large enough effect; inconclusive = small, poorly fitted or top-dose-only effect; inactive = flat fitted curve, though single readings scatter.
A correct response names exactly one class from YES = active, NO = inactive

# example entries with known answers
• O=C1Nc2ccc(I)cc2/C1=C/c1cc(Br)c(O)c(Br)c1 = NO
• c1ccc2nc(C3=NCCN3)ccc2c1 = NO
• NC(=Nc1ccccc1)NC(=O)c1nc(Cl)c(N)nc1N = NO
• COCc1nc2c([nH]1)c(=O)n(C)c(=O)n2CC(C)C = NO
• c1ccc(C(NCc2cccnc2)(c2ccccc2)c2ccccc2)cc1 = NO
• S=C(S)N1CCCC1 = NO
• CC(C)NC[C@H](O)COc1ccc(CC(N)=O)cc1 = NO
• N[C@H](C(=O)O)c1cc(O)cc(O)c1 = NO

Qu. Recorded test outcome, item `C=CCn1c(=O)c2c(nc(-c3ccc(S(=O)(=O)O)cc3)n2C)n(C)c1=O`
Ans. YES

Qu. Recorded test outcome, item COc1cc(C(O)C(=O)O)ccc1O (stereo unspecified)
Ans. NO

Qu. Recorded test outcome, item `O=C(O)c1ccccc1Nc1ccccc1`
Ans. NO

Qu. Recorded test outcome, item CC(/C=C/c1cccc(Oc2ccc(F)cc2)c1)N(O)C(N)=O (stereo unspecified)
Ans. NO

Qu. Recorded test outcome, item `NCCCNCCCCNCCCN`
Ans. NO

Qu. Recorded test outcome, item `COc1ccc(CCN(C)CCc2ccc(OC)c(OC)c2)cc1OC`
Ans. NO
